molecular target: Mitogen-activated protein kinase kinase kinase kinase 1 (Homo sapiens, UniProt Q92918); experiment: Inhibition of HPK1 in human T cells assessed as increase in IL-2 secretion measured after 24 hrs by ELISA method; assay type: cell-based, T-cell
Sequence (Q92918 whole entry): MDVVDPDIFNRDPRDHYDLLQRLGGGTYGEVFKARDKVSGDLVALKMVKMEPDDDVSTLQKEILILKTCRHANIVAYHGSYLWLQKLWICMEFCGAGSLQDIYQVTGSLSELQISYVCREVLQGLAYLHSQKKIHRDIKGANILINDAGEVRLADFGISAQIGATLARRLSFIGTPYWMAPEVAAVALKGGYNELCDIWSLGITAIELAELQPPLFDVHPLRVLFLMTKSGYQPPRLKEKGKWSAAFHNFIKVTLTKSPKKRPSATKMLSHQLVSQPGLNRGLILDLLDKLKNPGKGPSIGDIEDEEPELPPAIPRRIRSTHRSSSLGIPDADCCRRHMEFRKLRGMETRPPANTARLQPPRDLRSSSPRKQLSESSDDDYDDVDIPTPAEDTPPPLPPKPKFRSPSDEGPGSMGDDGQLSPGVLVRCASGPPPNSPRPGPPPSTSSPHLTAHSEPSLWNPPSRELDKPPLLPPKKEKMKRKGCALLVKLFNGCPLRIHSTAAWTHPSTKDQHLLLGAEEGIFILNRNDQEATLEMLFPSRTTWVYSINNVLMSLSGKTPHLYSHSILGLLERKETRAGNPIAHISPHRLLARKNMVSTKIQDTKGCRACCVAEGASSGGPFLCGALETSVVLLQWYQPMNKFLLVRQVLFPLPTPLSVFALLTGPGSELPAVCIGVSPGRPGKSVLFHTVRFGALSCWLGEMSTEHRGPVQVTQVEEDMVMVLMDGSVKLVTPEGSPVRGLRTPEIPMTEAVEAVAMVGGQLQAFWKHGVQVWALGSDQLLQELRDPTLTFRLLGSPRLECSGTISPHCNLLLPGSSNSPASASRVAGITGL
Measured EC50 values are reported for all entries that follow.
Parameter: EC50

> print(dat)
                                   molecule  data.value
1  O=c1[nH]ncc2c(-c3cnc4cc(F)ccn34)ccc(Nc3ccc(C4CCOCC4)c(CN4CC[C@@H](F)C4)n3)c12      373 nM
2  CN(C)Cc1nc(Nc2ccc(-c3cnc4cc(F)ccn34)c3cc[nH]c(=O)c23)ccc1C1CCOCC1      220 nM
3  CN(C)Cc1nc(Nc2ccc(-c3cnc4cc(F)ccn34)c3cn[nH]c(=O)c23)ccc1C1CCOCC1      123 nM
4  O=c1[nH]ncc2c(-c3cnc4cc(F)ccn34)ccc(Nc3ccc(C4CCOCC4)c(CN4CC[C@H](F)C4)n3)c12      187 nM
